Please go through the items and note down their viability at 10 µM.
tested on: SH-SY5Y; assay: Neuroprotective activity against H2O2-induced neurotoxicity in human SH-SY5Y cells assessed as cell survival at 10 uM incubated for 2 hrs before H2O2 challenge measured after 24 hrs by MTT assay; type: functional; settings: Homo sapiens, SH-SY5Y; read-out: Activity
Numbers only, in %.

In the examples that follow, each entry is paired with its recorded viability at 10 µM.
Exercise: Given the entry COc1cc2c(c(OC)c1OC)-c1c(cc3c(c1OC)OCO3)[C@H](O)[C@H](C)[C@H](C)[C@@H]2O , report its measured viability at 10 µM.
Key: 59.6

Exercise: Given the entry C/C=C(/C)C(=O)O[C@H]1c2cc(OC)c(OC)c(OC)c2-c2c(cc3c(c2OC)OCO3)[C@H](OC(C)=O)[C@H](C)[C@@H]1C , report its measured viability at 10 µM.
Key: 53.6

Exercise: Given the entry COc1cc2c(c(OC)c1OC)-c1c(cc3c(c1OC)OCO3)[C@@H](OC(C)=O)[C@@H](C)[C@H](C)C2=O , report its measured viability at 10 µM.
Key: 69.6

Exercise: Given the entry COc1cc2c(c(OC)c1OC)-c1c(cc3c(c1OC)OCO3)[C@H](OC(C)=O)[C@H](C)[C@H](C)[C@H]2OC(C)=O , report its measured viability at 10 µM.
Key: 88.6

Exercise: Given the entry COc1cc2c(c(OC)c1OC)-c1c(cc3c(c1OC)OCO3)[C@H](OC(C)=O)[C@H](C)[C@H](C)[C@@H]2O , report its measured viability at 10 µM.
Key: 63

Now take the following compound into account.
Exercise: Given the entry COc1cc2c(c(OC)c1OC)-c1c(cc3c(c1OC)OCO3)[C@H](O)[C@@H](C)[C@@H](C)C2 , report its measured viability at 10 µM.
Key: 60.1

###

system: SH-SY5Y; experiment: Neuroprotective activity against H2O2-induced neurotoxicity in human SH-SY5Y cells assessed as cell survival at 1 uM incubated for 2 hrs before H2O2 challenge measured after 24 hrs by MTT assay; type: functional; details: Homo sapiens, SH-SY5Y; read-out: Activity
recorded.endpoint: viability at 1 µM

Exercise: Given the entry COc1cc2c(c(OC)c1OC)-c1c(cc3c(c1OC)OCO3)[C@H](O)[C@H](C)[C@H](C)[C@H]2OC(C)=O , report its measured viability at 1 µM.
Key: 62%

Exercise: Given the entry COc1cc2c(c(OC)c1OC)-c1c(cc3c(c1OC)OCO3)[C@H](OC(=O)c1ccccc1)[C@H](C)[C@H](C)[C@H]2OC(C)=O , report its measured viability at 1 µM.
Key: 68.9%

Exercise: Given the entry COc1cc2c(c(OC)c1OC)-c1c(cc3c(c1OC)OCO3)[C@H](O)[C@H](C)[C@H](C)C2 , report its measured viability at 1 µM.
Key: 56.9%

Please look at the items below and tell me viability at 1 µM for each one, in order.
1. CCC(C)C(=O)O[C@H]1c2cc3c(c(OC)c2-c2c(cc(OC)c(OC)c2OC)[C@H](OC(C)=O)[C@@H](C)[C@H]1C)OCO3 (stereo partly specified)
2. COc1cc2c(c(OC)c1OC)-c1c(cc3c(c1OC)OCO3)[C@H](O)[C@H](C)[C@H](C)[C@@H]2O

Key:
1: 52.2%; 2: 57.7%

Exercise: Given the entry C/C=C(/C)C(=O)O[C@H]1c2cc(OC)c(OC)c(OC)c2-c2c(cc3c(c2OC)OCO3)[C@H](OC(=O)C(C)C)[C@H](C)[C@@H]1C , report its measured viability at 1 µM.
Key: 74%
